Data provenance: PubChem BioAssay (NCI)

Test system: OVCAR-8 ovarian
Assay notes: NCI-60 one-dose screen, 48 h
Condition description: 10 µM unless noted
This is part of a sample that, as a whole, favours compounds with a hit. Of some 83,000 tested, about 20% had one in any assay. Active and inactive are the calls of the source. Rule for the calls: active = growth percent below 10; inactive = the rest.
The categories you may choose from are TRUE (active), FALSE (inactive)

Solved cases (2 shown):
* COc1cccc(C2=NN3C(C2)c2cc(Br)cc(OC)c2OC32CCN(Cc3ccccc3)CC2)c1 (stereo unspecified) | FALSE
* CN(Cc1cc(Cl)cc(Cl)c1O)Cc1cc(Cl)cc(Cl)c1O | FALSE

Enquiry: GET /call?item= COc1ccc(SC2c3ccc(C)cc3Oc3nc(N)c(C#N)c(N)c32)cc1 (stereo unspecified) returns the recorded outcome of this test.
Return: TRUE

Enquiry: Returns: the outcome recorded for "Cn1cccc1-c1nc2c3c(ccc2[nH]1)C(=O)c1ccccc1C3=O" in this assay.
Return: FALSE
